molecular target: S1 variant B.1.1.7: UK (Acro) spike protein (SARS-CoV-2, UniProt P0DTC2 16-1213); assay: SPR (Carterra LSA); […]; 1:1 model; […]
test readout: koff (s⁻¹)
Numbers only, in s⁻¹.

Below are worked cases with known answers.
>>> measured_value("Antibody 1-13 (Fc fusion) EVQLVESGGGLVQPGGSLRLSCAASGRTTFSSYTMGWFRQAPGKEREFVASITRSGVLNYADSVKGRFTISADNSKNTAYLQMNSLKPEDTAVYYCAKEDVGKPFDWGQGTLVTVSS")
0.00088
>>> measured_value("Antibody 1-10 (Fc fusion) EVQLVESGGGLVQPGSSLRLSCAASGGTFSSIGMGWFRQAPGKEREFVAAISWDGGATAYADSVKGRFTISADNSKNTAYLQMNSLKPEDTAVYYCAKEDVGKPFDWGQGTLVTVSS")
0.00013

Item under review: Antibody 1-8 (Fc fusion) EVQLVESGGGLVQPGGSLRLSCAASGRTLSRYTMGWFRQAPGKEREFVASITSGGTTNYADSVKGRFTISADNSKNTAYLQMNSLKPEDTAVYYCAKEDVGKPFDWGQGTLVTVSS . Reported koff?
0.0007
